B1: POU domain, class 5, transcription factor 1, residues 134 to 212; numbered along this chain, Q01860 (parent)
chain: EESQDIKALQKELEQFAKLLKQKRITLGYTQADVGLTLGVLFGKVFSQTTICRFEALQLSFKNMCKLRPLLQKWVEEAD

# Variants of: B1
# measurement.description: abundance fitness (aPCA) (normalised: wild type 0, dead -1); higher = more abundant; growth selection in yeast, the domain comes from the species named
# experimental.parameters: Homo sapiens
Tag: Satisfied if measured abundance fitness is not below -0.2, Not satisfied if it is.

// inclusive: abundance fitness at least -0.2? input: EESQDIKALQKELEQFAKLLKQKRITLGYTQADVGLTLGVLFGKVFSQTTICRFQALQLSFKNMCKLRPLLQKWVEEAD Not satisfied

Another variant: QESQDIKALQKELEQFAKLLKQKRITLGYTQADVGLTLGVLFGKVFSQTTICRFEALQLSFKNMCKLRPLLQKWVEEAD Satisfied

Another variant: EESQDIKALQKELEQFAKLLKQKRITLGYTQADVGLTLKVLFGKVFSQTTICRFEALQLSFKNMCKLRPLLQKWVEEAD Satisfied

Another variant: EESQDIKALQKELEQFAKLLKQKRITLGYTQADVGLTLGVLFGKVFSQTTICRFEALQLSFINMCKLRPLLQKWVEEAD Not satisfied

Another variant: EESQDIKALQKELEQFAKLLKQKRITLGYTQADVGLTLAVLFGKVFSQTTICRFEALQLSFKNMCKLRPLLQKWVEEAD Not satisfied

Another variant: EESQDIKALQKELEQFAKLLKQKRITLGYTQADVGLTLGVLFGKVFSQTTICRFEALQCSFKNMCKLRPLLQKWVEEAD Satisfied

Another variant: EESQDIKALQKELEQFAKLLKRKRITLGYTQADVGLTLGVLFGKVFSQTTICRFEALQLSFKNMCKLRPLLQKWVEEAD Satisfied

Another variant: EESQDIKALQKELEQFAKLLKQKRITLGYTQADVGLTLGVLFGKVFSQTTICRFEALQLSFKNMCKLRPLLQKWVEKAD Satisfied

Another variant: EESQDIKALQKELEQFAKLLKQKRITLGYTQADVGLTLGVLFGKVFSQTTICRFEALALSFKNMCKLRPLLQKWVEEAD Not satisfied

Another variant: EESQDIKALQKELEQFAKLLKQKRITLGYTQADVGLTLGVLFGKVFSQTTICRFEALQLSFKVMCKLRPLLQKWVEEAD Not satisfied

Another variant: EESQDIKALQKELEQFAKLLKQKRITLGYTQLDVGLTLGVLFGKVFSQTTICRFEALQLSFKNMCKLRPLLQKWVEEAD Not satisfied

Another variant: EESQDIKALQKELEQFAKLLKQKRITLGYTQKDVGLTLGVLFGKVFSQTTICRFEALQLSFKNMCKLRPLLQKWVEEAD Satisfied

Another variant: EESQDIKALQKELEQFAKLLKQKRITLGYTQADVGLTLGVLFGKVFSQTTICRFEALQLVFKNMCKLRPLLQKWVEEAD Not satisfied

Another variant: EESQDIKALQKELEQFAKLLKQKRITLGYTQADVGLTLGVLFGKVFSQTTICRFEALQLSFKNMCKARPLLQKWVEEAD Not satisfied
